Could you please report measured pKi for the items listed next?
target: MAO-B (Rattus norvegicus, UniProt P19643); construct: un homogénat de cerveau total de rat mâle Sprague-Dawley; assay: MAO-B inhibition in vitro, rat brain homogenate (protocol of DOSTERT P. et coll.); conditions: 20 min preincubation; [14C] phényléthylamine 12 µM, KM = 6 µM; whole brain homogenate of male Sprague-Dawley rat, 1 g tissue/16 ml phosphate buffer pH 7,4; Ki calculated from CI 50
Sequence (P19643 whole entry): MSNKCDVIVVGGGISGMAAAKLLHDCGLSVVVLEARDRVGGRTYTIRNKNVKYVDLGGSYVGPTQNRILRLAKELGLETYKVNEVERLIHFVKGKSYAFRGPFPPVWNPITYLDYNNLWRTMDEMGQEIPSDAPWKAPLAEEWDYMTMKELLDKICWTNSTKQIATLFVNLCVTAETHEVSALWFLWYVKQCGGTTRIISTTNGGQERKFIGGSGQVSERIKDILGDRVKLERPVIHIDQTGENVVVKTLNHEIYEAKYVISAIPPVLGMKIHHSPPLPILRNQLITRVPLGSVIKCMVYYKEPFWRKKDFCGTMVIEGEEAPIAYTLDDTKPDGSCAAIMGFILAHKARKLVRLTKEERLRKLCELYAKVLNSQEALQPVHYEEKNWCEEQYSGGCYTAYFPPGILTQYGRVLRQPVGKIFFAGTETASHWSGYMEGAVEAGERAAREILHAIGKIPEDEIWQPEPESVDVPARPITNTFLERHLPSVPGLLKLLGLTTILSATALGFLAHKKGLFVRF
// returns pKi (minus log10 of molar concentration), number only

The compound `C[C@@H](O)[C@H]1CN(c2ccc(OCC3CCCCC3)cc2)C(=O)O1` showed pKi equal to 7.40

The compound `CC(C)CCOc1ccc(N2C[C@H]([C@@H](C)O)OC2=O)cc1` showed pKi equal to 6.77

The compound `C[C@@H](O)[C@H]1CN(c2ccc(OCc3ccc(F)c(Cl)c3)cc2)C(=O)O1` showed pKi equal to 7.85

The compound `C[C@H](O)[C@@H]1CN(c2ccc(OCc3cccc(Cl)c3)cc2)C(=O)O1` showed pKi equal to 5.80

The compound `C[C@@H](O)[C@H]1CN(c2ccc(OCc3cccc(Cl)c3)cc2)C(=O)O1` showed pKi equal to 7.57

###

Target: MAO-A (Rattus norvegicus, UniProt P21396)
Construct: un homogénat de cerveau total de rat mâle Sprague-Dawley
Sequence (P21396 1-526): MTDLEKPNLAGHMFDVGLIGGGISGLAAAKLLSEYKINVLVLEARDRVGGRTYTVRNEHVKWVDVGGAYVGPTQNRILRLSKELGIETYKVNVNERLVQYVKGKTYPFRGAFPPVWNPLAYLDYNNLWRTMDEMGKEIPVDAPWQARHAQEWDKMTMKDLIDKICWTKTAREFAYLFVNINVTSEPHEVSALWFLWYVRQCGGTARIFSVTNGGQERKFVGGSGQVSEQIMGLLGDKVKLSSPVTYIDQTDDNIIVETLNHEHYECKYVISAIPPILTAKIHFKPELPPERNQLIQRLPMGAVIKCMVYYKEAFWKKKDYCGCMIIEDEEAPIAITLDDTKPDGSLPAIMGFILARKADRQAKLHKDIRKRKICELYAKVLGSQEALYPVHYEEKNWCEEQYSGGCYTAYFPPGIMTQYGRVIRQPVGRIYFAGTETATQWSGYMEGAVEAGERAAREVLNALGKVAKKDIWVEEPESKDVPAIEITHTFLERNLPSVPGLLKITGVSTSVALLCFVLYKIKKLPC
Experiment: MAO-A inhibition in vitro, rat brain homogenate (protocol of DOSTERT P. et coll.)
Details: 20 min preincubation; [14C] sérotonine 480 µM, KM = 100 µM; whole brain homogenate of male Sprague-Dawley rat, 1 g tissue/16 ml phosphate buffer pH 7,4; Ki calculated from CI 50
MEASURE: pKi
// returns pKi (minus log10 of molar concentration), number only

The molecule CC(C)CCOc1ccc(N2C[C@H]([C@@H](C)O)OC2=O)cc1 [compound 200497] showed pKi equal to 5.22

The molecule C[C@@H](O)[C@H]1CN(c2ccc(OCC3CCCCC3)cc2)C(=O)O1 [compound 200443] showed pKi equal to 4.99

The molecule C[C@@H](O)[C@H]1CN(c2ccc(OCc3ccc(F)c(Cl)c3)cc2)C(=O)O1 [compound 200498] showed pKi equal to 5.05

###

Target: MAO-B (Rattus norvegicus)
Construct: un homogénat de cerveau total de rat mâle Sprague-Dawley; from tissue; host or cells: whole brain homogenate of male Sprague-Dawley rat
Assay: MAO-B inhibition in vitro, rat brain homogenate (protocol of DOSTERT P. et coll.)
Format: biochemical
Conditions: selectivity ratio MAO-A over MAO-B, rat brain homogenate
Protocol: Cette activité-a été mise en évidence par mise en oeuvre du protocole décrit par DOSTERT P. et coll. dans J. Pharm. Pharmacol., 1983, 35, 161-165; ce protocole est basé sur des tests enzymatiques menés avec ou sans préincubation notamment à 37° C pendant 20 minutes et il permet de mesurer in vitro l'effet inhibiteur à l'égard de la MAO-A et de la MAO-B du cerveau de rat. […]
Could you please report measured Ki (A) / Ki (B) for the items listed next?
Just the number, please.

The compound C[C@@H](O)[C@H]1CN(c2ccc(OCC3CCCCC3)cc2)C(=O)O1 [compound 200443] showed Ki (A) / Ki (B) equal to 259

The compound C[C@@H](O)[C@H]1CN(c2ccc(OCc3ccc(F)c(Cl)c3)cc2)C(=O)O1 [compound 200498] showed Ki (A) / Ki (B) equal to 634

The compound CC(C)CCOc1ccc(N2C[C@H]([C@@H](C)O)OC2=O)cc1 [compound 200497] showed Ki (A) / Ki (B) equal to 36
